protocol.summary: Drug level in Wistar rat brain at 10 mg/kg, po after 2 hrs
Format: ADME, organism-based
Design: dose 10 mg/kg, route oral
particulars: read-out: Drug uptake
Listing of recorded concentration at 2 h by entry.

{"line.notation": "O=C(N[C@H]1CCC[C@@H]1O)c1cn(-c2ccc(Cl)cc2)c(-c2ccccc2Cl)n1", "readout": "concentration at 2 h", "result": "330 nM"}

Record summary for O=C(N[C@H]1CCCC[C@@H]1O)c1cn(-c2ccc(Cl)cc2)c(-c2ccccc2Cl)n1 : reported concentration at 2 h = 110 nM

====

assayed.target: Cannabinoid receptor 1 (Homo sapiens, UniProt P21554)
Sequence (P21554 whole entry): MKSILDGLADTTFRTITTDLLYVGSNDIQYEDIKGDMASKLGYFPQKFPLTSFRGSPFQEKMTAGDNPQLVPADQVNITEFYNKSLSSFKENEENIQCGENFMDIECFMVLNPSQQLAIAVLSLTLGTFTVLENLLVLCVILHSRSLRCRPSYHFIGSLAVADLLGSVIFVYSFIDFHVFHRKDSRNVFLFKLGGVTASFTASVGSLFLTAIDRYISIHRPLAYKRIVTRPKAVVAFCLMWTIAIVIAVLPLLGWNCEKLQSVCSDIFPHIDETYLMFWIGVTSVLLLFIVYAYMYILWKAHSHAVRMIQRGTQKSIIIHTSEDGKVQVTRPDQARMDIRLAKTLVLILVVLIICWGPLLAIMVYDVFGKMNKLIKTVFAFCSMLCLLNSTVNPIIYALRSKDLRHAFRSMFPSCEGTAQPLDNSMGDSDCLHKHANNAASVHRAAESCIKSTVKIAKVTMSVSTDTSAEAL
protocol.summary: Antagonist activity at human CB1 receptor expressed in CHOK1 cells assessed as inhibition of forskolin-stimulated cAMP levels
Assay type: functional, cell-based
particulars: CHO-K1
Response field label: string, one of 1 (yes) (Kb strictly below 7 nM) or 0 (no).

{"compound": "O=C(NC1CCCCC1)c1cn(-c2ccc(Cl)cc2)c(-c2ccccc2Cl)n1", "discrete.label": "0 (no)"}

Please let me know if CCc1c(C(=O)N[C@H]2CCCC[C@@H]2O)nc(-c2ccccc2Cl)n1-c1ccc(Br)cc1 shows Kb below 7 nM.
0 (no)

Please let me know if O=C(N[C@H]1CCC[C@@H]1O)c1cn(-c2ccc(Cl)cc2)c(-c2ccccc2Cl)n1 shows Kb below 7 nM.
0 (no)

Please let me know if O=C(N[C@@H]1CCCC[C@H]1O)c1cn(-c2ccc(Cl)cc2)c(-c2ccccc2Cl)n1 shows Kb below 7 nM.
0 (no)

Please let me know if CCCc1c(C(=O)N[C@H]2CCCC[C@@H]2O)nc(-c2ccccc2Cl)n1-c1ccc(Cl)cc1 shows Kb below 7 nM.
1 (yes)

Please let me know if Cc1ccccc1-c1nc(C(=O)NC2CCCCC2)cn1-c1ccc(Cl)cc1 shows Kb below 7 nM.
0 (no)

Please let me know if O=C(N[C@@H]1c2ccccc2C[C@@H]1O)c1cn(-c2ccc(Cl)cc2)c(-c2ccccc2Cl)n1 shows Kb below 7 nM.
0 (no)

Please let me know if O=C(NC1CCCCC1O)c1cn(-c2ccc(Cl)cc2)c(-c2ccc(Cl)cc2Cl)n1 (racemic) shows Kb below 7 nM.
1 (yes)

Please let me know if O=C(NC1CCCCC1)c1cn(-c2ccc(Cl)cc2)c(-c2ccc(Cl)cc2Cl)n1 shows Kb below 7 nM.
0 (no)

Please let me know if O=C(N[C@H]1c2ccccc2C[C@H]1O)c1cn(-c2ccc(Cl)cc2)c(-c2ccccc2Cl)n1 shows Kb below 7 nM.
1 (yes)

====

Assay system UniProt:P34972; read-out recorded as log10 of Ki.
Sequence (P34972 whole entry): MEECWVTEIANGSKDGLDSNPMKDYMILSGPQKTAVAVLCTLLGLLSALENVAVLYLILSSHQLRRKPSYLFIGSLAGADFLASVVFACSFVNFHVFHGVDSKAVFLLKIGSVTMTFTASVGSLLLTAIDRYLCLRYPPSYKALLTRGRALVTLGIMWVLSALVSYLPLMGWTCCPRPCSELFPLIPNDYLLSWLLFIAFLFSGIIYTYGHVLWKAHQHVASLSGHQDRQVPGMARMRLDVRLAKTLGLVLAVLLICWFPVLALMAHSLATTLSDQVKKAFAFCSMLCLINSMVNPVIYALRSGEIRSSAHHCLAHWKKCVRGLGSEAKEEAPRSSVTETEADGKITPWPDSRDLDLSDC
Answers are given as log10 of Ki in nM.

Illustrative cases are given below, each with its answer.
{"compound": "O=C(NC1CCCCC1O)c1cn(-c2ccc(Cl)cc2)c(-c2ccc(Cl)cc2Cl)n1 (racemic)", "log10 of Ki": 3.04}
{"compound": "O=C(N[C@H]1CCC[C@@H]1O)c1cn(-c2ccc(Cl)cc2)c(-c2ccccc2Cl)n1", "log10 of Ki": 3.80}
{"compound": "O=C(N[C@H]1CCCC[C@@H]1O)c1cn(-c2ccc(Cl)cc2)c(-c2ccccc2Cl)n1", "log10 of Ki": 3.72}
{"compound": "CCc1c(C(=O)N[C@H]2CCCC[C@@H]2O)nc(-c2ccccc2Cl)n1-c1ccc(Br)cc1", "log10 of Ki": 3.43}
{"compound": "O=C(NC1CCCCC1)c1cn(-c2ccc(Cl)cc2)c(-c2ccc(Cl)cc2Cl)n1", "log10 of Ki": 2.38}
{"compound": "O=C(N[C@@H]1c2ccccc2C[C@@H]1O)c1cn(-c2ccc(Cl)cc2)c(-c2ccccc2Cl)n1", "log10 of Ki": 3.71}

Now consider a different compound.
Record summary for O=C(N[C@H]1c2ccccc2C[C@H]1O)c1cn(-c2ccc(Cl)cc2)c(-c2ccccc2Cl)n1 : reported log10 of Ki = 3.08
